Target: vanilloid receptor 1 (VR1/TRPV1 receptor) (Homo sapiens, UniProt Q8NER1)
Construct: expressed in transfected cells; host or cells: CHO K1
Sequence (Q8NER1 whole entry): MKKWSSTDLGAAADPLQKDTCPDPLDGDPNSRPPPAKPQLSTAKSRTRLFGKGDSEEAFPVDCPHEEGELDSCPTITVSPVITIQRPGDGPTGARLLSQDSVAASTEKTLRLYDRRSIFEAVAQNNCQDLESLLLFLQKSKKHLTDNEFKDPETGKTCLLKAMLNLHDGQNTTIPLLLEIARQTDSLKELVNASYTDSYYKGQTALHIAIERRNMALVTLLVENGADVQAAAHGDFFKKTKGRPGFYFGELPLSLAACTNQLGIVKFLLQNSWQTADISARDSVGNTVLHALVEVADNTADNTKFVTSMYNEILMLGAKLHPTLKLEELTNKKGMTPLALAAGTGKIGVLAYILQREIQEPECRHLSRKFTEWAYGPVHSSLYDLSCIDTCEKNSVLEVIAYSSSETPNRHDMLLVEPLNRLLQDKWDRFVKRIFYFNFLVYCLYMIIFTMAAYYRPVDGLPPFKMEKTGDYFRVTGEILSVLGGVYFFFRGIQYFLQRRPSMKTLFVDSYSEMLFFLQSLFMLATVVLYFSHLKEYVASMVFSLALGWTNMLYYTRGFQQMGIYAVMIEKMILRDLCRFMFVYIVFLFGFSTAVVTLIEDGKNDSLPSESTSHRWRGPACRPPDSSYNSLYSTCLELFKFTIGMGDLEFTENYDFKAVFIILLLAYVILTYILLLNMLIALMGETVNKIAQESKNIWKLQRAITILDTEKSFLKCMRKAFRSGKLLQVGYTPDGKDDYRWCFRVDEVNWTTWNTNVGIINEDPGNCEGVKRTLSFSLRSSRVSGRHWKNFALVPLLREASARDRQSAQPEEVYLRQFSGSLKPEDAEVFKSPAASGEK
Experiment: Functional testing on the vanilloid receptor 1 (FLIPR Ca2+ influx assay, capsaicin)
Type: cell-based, human being
Conditions: Cap=capsaicin (100 nM); Ki from IC50 by Cheng-Prusoff equation; read-out: (f) Ki (human being) [nM] Cap
Reported Endpoint: Ki (nM)
Please respond with the number in nM and leave the unit unwritten.

Missing value: Ki, vanilloid receptor 1 (VR1/TRPV1 receptor) (Homo sapiens, UniProt Q8NER1), entry "CN(C)C1(c2ccccc2)CCN(c2nc(C(F)(F)F)ccc2CNC(=O)Nc2cccc3[nH]ncc23)CC1" . Fill in?
7

Missing value: Ki, vanilloid receptor 1 (VR1/TRPV1 receptor) (Homo sapiens, UniProt Q8NER1), entry "CC1CCN(c2cc(C(F)(F)F)ccc2CNC(=O)Nc2cc(F)cc3[nH]ncc23)CC1" . Fill in?
1

Missing value: Ki, vanilloid receptor 1 (VR1/TRPV1 receptor) (Homo sapiens, UniProt Q8NER1), entry "O=C(NCc1ccc(C(F)(F)F)nc1OC1CCC1)Nc1cccc2ncccc12" . Fill in?
2

Missing value: Ki, vanilloid receptor 1 (VR1/TRPV1 receptor) (Homo sapiens, UniProt Q8NER1), entry "CC1CCN(c2nc(C(F)(F)F)ccc2CNC(=O)Nc2cccc3scnc23)CC1" . Fill in?
18

Missing value: Ki, vanilloid receptor 1 (VR1/TRPV1 receptor) (Homo sapiens, UniProt Q8NER1), entry "CC1CCN(c2cc(C(F)(F)F)ccc2CNC(=O)Nc2cccc3ncccc23)CC1" . Fill in?
0.7

Missing value: Ki, vanilloid receptor 1 (VR1/TRPV1 receptor) (Homo sapiens, UniProt Q8NER1), entry "CC1CCN(c2nc(C(F)(F)F)ccc2CNC(=O)Nc2ccc3cnn(C)c3c2)CC1" . Fill in?
7

Missing value: Ki, vanilloid receptor 1 (VR1/TRPV1 receptor) (Homo sapiens, UniProt Q8NER1), entry "CCCCOc1nc(C(F)(F)F)ccc1CNC(=O)Nc1cccc2ncccc12" . Fill in?
2

Missing value: Ki, vanilloid receptor 1 (VR1/TRPV1 receptor) (Homo sapiens, UniProt Q8NER1), entry "CC1CCN(c2nc(C(C)(C)C)ccc2CNC(=O)Nc2cc(F)cc3[nH]ncc23)CC1" . Fill in?
2

Missing value: Ki, vanilloid receptor 1 (VR1/TRPV1 receptor) (Homo sapiens, UniProt Q8NER1), entry "Cc1ccc2cccc(NC(=O)NCc3ccc(C(F)(F)F)nc3N3CCC(C)CC3)c2n1" . Fill in?
24

Missing value: Ki, vanilloid receptor 1 (VR1/TRPV1 receptor) (Homo sapiens, UniProt Q8NER1), entry "Cc1[nH]c2c(NC(=O)NCc3ccc(C(F)(F)F)nc3N3CCC(C)CC3)cccc2c1C" . Fill in?
4

Missing value: Ki, vanilloid receptor 1 (VR1/TRPV1 receptor) (Homo sapiens, UniProt Q8NER1), entry "CC1CCN(c2nc(C(F)(F)F)ccc2CNC(=O)Nc2cccc3c(O)ncnc23)CC1" . Fill in?
17

Missing value: Ki, vanilloid receptor 1 (VR1/TRPV1 receptor) (Homo sapiens, UniProt Q8NER1), entry "CC1CCN(c2nc(C(F)(F)F)ccc2CNC(=O)Nc2cccc3c(Cl)nccc23)CC1" . Fill in?
0.8

Missing value: Ki, vanilloid receptor 1 (VR1/TRPV1 receptor) (Homo sapiens, UniProt Q8NER1), entry "CC(=O)n1ncc2c(NC(=O)NCc3ccc(C(F)(F)F)nc3N3CCC(C)CC3)cccc21" . Fill in?
13

Missing value: Ki, vanilloid receptor 1 (VR1/TRPV1 receptor) (Homo sapiens, UniProt Q8NER1), entry "CN(C)C1(c2ccccc2)CCN(c2nc(C(F)(F)F)ccc2CNC(=O)Nc2cccc3[nH]ccc23)CC1" . Fill in?
8

Missing value: Ki, vanilloid receptor 1 (VR1/TRPV1 receptor) (Homo sapiens, UniProt Q8NER1), entry "CC1CCN(c2nc(C(F)(F)F)ccc2CNC(=O)Nc2ccc3scnc3c2)CC1" . Fill in?
5

Missing value: Ki, vanilloid receptor 1 (VR1/TRPV1 receptor) (Homo sapiens, UniProt Q8NER1), entry "O=C(NCc1ccc(C(F)(F)F)nc1SC1CCCCC1)Nc1cccc2ccncc12" . Fill in?
1

Missing value: Ki, vanilloid receptor 1 (VR1/TRPV1 receptor) (Homo sapiens, UniProt Q8NER1), entry "CC1CCN(c2nc(C(F)(F)F)ccc2CNC(=O)Nc2cccc3[nH]cnc23)CC1" . Fill in?
3
